Target: T1, human factor Xa (human, UniProt P00742 41-179; P00742 235-488)
T1 chain 1: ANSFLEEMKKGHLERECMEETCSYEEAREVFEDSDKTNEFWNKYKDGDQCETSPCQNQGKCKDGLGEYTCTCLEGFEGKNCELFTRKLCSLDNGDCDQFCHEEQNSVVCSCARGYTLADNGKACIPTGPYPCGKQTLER
T1 chain 2: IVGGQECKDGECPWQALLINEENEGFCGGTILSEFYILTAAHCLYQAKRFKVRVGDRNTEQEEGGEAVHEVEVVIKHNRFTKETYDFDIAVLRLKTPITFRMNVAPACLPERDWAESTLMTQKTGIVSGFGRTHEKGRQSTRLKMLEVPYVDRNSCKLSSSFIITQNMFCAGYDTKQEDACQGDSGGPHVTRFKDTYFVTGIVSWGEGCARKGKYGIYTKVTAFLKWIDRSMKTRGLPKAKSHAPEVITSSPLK
Experiment: enzyme inhibition
Property: Ki (nM)
Lab book: enter the figure in nM, no units written.

Value of measured Ki for the entry TW116 (protein) EVCSEQAETGPCRAMIIRWYFDVTEGKCAPFFYGGCGGNRNNFDTEEYCMAVCGSAI : 806

Value of measured Ki for the entry BG012 (protein) EVVREVCSEQAETGPCRAMISTWYFDVTEGKCAPFFYGGCGGNRNNFDTEEYCMAVCGSAI : 116

Value of measured Ki for the entry DD104 (protein) EVVREVCSEQAETGPCRAMIYRWYFDVTEGKCAPFFYGGCGGNRNNFDTEEYCMAVCGSAI : 345
